Catalogue of composite z-score readings, one per entry.
target: Alpha-bungarotoxin (Bungarus multicinctus) (UniProt P60615); experiment: compounds binding labelled alpha-BTX control protein – biochemical, small-molecule microarray, Alexa647 label, 635/667 nm fluorescence, artefact control for SMM control protein annotation, profiling panel (AID 1117); conditions: alpha-BTX-A647 binding fluorescence, higher = more signal
Sequence (P60615 whole entry, looked up): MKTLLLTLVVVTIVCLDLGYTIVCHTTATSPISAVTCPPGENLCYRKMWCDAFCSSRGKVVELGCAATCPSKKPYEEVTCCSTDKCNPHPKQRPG
Give the value as a plain number.

Sample answers from the record:
compound | target-desc | composite z-score
COc1cc(OC)c(C(O)C2C=CC3C(=O)N(Cc4ccccc4)C(=O)C3N2n2cnnc2)cc1Br (configuration not stated) | Alpha-bungarotoxin (Bungarus multicinctus) (UniProt P60615) | 0.871
O=C1C[C@]2(c3ccc([N+](=O)[O-])cc3)C(=O)N(C3CC3)c3cc(CO)ccc3[C@H]2N1CC12CC3CC(CC(C3)C1)C2 | Alpha-bungarotoxin (Bungarus multicinctus) (UniProt P60615) | -0.444
COc1cc(C(O)C2C=CC3C(=O)N(C)C(=O)C3N2Nc2ccccc2)cc(OC)c1OC (configuration not stated) | Alpha-bungarotoxin (Bungarus multicinctus) (UniProt P60615) | 0.469
CC(C)[Si](C#CCCCC#N)(O[C@H](c1ccccc1)c1cn(Cc2ccccc2)nn1)C(C)C | Alpha-bungarotoxin (Bungarus multicinctus) (UniProt P60615) | -0.199
C=CC[C@@]1(C(=O)NCCCOC)N=C(c2ccc(OCCCO)cc2)O[C@@H]1c1ccccc1 | Alpha-bungarotoxin (Bungarus multicinctus) (UniProt P60615) | -0.146
CCCC=C(CCC)[C@@H](NC(=O)C(C)(C)C)c1ccc(C(=O)OC)cc1 | Alpha-bungarotoxin (Bungarus multicinctus) (UniProt P60615) | 1.5

# next compound below
For the compound shown here, `CCOC(=O)C[C@H]1[C@H](OC(=O)c2ccc(C(=O)c3ccccc3)cc2)[C@@H](NC(=O)CC(C)C)c2cc(OCCCO)ccc2N1C(=O)c1ccccc1` , give the reported composite z-score.
0.741

###

molecular target: Fibroblast growth factor 10 (Homo sapiens) (UniProt O15520); assay: compounds binding fibroblast growth factor 10 – biochemical, small-molecule microarray, 635 nm fluorescence, primary screen (AID 1102); conditions: FGF10 binding, fluorescence 635 nm, higher = more signal
Sequence (O15520 whole entry, looked up): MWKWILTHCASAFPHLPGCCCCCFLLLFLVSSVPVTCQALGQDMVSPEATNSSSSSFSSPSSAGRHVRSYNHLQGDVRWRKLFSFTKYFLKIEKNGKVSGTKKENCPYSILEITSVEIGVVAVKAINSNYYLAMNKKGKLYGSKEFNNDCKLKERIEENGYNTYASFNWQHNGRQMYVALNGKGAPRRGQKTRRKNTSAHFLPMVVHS
parameter: composite z-score

Example cases with answers are listed next.
molecule | result
CC1CC/C=C\[C@H]2OC34C=CCN(Cc5ccccc5)C(=O)[C@H]3N(C(CO)C(C)C)C(=O)[C@@H]4C2C(=O)O1 (some centres undefined) | -0.871
NCCCCCNC(=O)[C@H]1C[C@H]2C(=O)N3CCC[C@H]3C(=O)N2[C@H]1c1cccc(OCCO)c1 | 0.68
CCCCC(CC)C(O)C1C=CC2C(=O)N(c3ccccc3)C(=O)C2N1Nc1ccc(C#N)cc1 (centres undefined) | 1.11

Would you mind telling me what composite z-score value was observed for CCCCCN1CC=CC23O[C@@H]4C=CCCOC(=O)C4[C@H]2C(=O)N(CCCCCCO)[C@@H]3C1=O (some centres undefined) ?
0.0027

###

biological target: Epidermal growth factor receptor (Homo sapiens) (UniProt P00533); test: compounds binding epidermal growth factor receptor – biochemical, small-molecule microarray, 635 nm fluorescence, primary screen (AID 1104); details: EGFR binding, higher = more signal;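 also: score merges 667 nm emission intensity with spot signal to noise over triplicate slides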
Sequence (P00533 whole entry, looked up): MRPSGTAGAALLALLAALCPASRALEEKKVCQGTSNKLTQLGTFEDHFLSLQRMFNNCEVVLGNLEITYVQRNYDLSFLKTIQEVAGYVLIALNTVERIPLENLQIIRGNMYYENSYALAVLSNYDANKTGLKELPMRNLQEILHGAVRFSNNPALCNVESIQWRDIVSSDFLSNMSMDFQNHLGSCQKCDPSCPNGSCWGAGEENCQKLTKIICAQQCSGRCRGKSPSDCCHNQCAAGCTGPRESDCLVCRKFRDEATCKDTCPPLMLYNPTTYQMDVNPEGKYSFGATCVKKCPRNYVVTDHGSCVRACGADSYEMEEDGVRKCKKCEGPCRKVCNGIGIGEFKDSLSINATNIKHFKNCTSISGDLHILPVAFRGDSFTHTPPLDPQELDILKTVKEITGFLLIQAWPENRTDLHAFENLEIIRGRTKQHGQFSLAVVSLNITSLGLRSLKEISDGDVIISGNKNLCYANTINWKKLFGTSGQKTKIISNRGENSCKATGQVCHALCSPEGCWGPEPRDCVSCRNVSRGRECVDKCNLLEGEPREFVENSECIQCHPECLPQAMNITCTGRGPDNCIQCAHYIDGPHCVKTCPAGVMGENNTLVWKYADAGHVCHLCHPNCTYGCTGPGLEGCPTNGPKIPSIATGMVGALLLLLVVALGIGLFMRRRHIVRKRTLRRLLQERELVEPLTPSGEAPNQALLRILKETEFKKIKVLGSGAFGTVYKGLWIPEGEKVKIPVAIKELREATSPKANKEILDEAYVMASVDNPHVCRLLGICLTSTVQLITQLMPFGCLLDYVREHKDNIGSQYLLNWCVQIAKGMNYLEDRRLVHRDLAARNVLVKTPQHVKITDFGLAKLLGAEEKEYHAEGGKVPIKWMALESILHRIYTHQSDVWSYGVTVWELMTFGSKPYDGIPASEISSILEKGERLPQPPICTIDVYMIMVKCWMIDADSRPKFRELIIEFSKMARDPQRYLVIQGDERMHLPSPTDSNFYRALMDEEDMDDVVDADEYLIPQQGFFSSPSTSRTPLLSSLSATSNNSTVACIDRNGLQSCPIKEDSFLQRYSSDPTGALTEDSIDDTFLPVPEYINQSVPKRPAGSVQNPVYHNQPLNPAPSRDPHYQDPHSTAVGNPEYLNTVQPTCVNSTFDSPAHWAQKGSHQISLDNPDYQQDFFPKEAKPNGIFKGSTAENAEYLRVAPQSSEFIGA
Parameter threshold = 1. Response is T when composite z-score meets or exceeds it, else F.

Worked cases, answers included:
smi | cat
NC(=O)[C@@]1(Cc2ccccc2)COC(c2ccc(OCCCO)cc2)=N1 | F
CC(C)[Si]1(C(C)C)OCc2cc(-c3ccc(-c4ccc(Cl)c(Cl)c4)o3)nc(-c3ccccc3)c21 | F
C[N+](C)(C)CCCCCCNC(=O)[C@@H]1C[C@@H]2C(=O)N3CCC[C@H]3C(=O)N2[C@@H]1c1ccc(O)cc1 | T
CC(C)(C)OC(=O)COc1cccc(C(=O)CCN2CCOCC2)c1 | F

Textbook exercise: given the entry `NCCCCCNC(=O)[C@@H]1C[C@@H]2C(=O)N[C@@H](CCCCN)C(=O)N2[C@@H]1c1ccc(O)cc1` , state whether its composite z-score is greater than or equal to 1.
T

This collection of values is drawn from PubChem BioAssay.
